assay: S. cerevisiae growth modulation with rapamycin, primary screen, strain BY4716, OD600, 96 h (AID 1091); settings: higher = more signal, called active from +8 up or from −8 down; further: test concentration not given here
Each record here notes measured z-score.
Give a plain numeric answer without units written out.

Sample records with z-score:
INSERT INTO results (compound, measure, measured_number) VALUES
  ('CO[C@H]1COC(=O)[C@H](C)NC(=O)[C@@H](C)COC(=O)[C@H]2CCCN2C(=O)CC=C[C@H]1C', 'z-score', -0.571),
  ('CO[C@@H]1C=CCC(=O)N2CCC[C@H]2C(=O)OC[C@@H](C)C(=O)OC[C@H]1C', 'z-score', -0.918),
  ('COc1cccc([C@H]2Oc3ccc(OC)cc3C(=NOC(C)CN3CCCCc4nc(C)c(C)cc43)[C@@H]2O)c1 (some centres undefined)', 'z-score', -1.48),
  ('CCOC(=O)[C@H](CC(C)C)NC(=O)CCC1CC(OC(=O)NCc2ccc3c(c2)OCO3)CC2(CCCC(COC(=O)NCCCN3CCCC3=O)O2)O1 (some centres undefined)', 'z-score', -0.474),
  ('O=C1[C@H]2[C@H]3[C@H](O)[C@H](O)CC(=NOCc4ccccc4)[C@H]3CC[C@H]2C(=O)N1Cc1ccc2c(c1)OCO2', 'z-score', -1.53),
  ('COc1ccc(O[C@H]2C=C[C@@H](c3ccccc3)O[C@@H]2CON=CC[C@@H]2C=C[C@H](OC(C)=O)[C@@H](COC(C)=O)O2)cc1', 'z-score', 0.721),
  ('CCOC(=O)NN=C1C[C@@H](O)[C@@H](O)[C@@H]2[C@@H]3C(=O)N(Cc4ccc5c(c4)OCO5)C(=O)[C@@H]3CC[C@H]12', 'z-score', -0.6),
  ('CO[C@@H]1COC(=O)[C@@H](C)COC(=O)[C@@H](C)NC(=O)CC=C[C@@H]1C', 'z-score', -2.47),
  ('COC(=O)[C@H]1O[C@@H](c2c(OC)c(OC)c(C)c(OC)c2OC)[C@H](C)[C@@H](O)[C@H]1C', 'z-score', -0.438),
  ('C=Cc1ccc([C@H]2N[C@H](C(=O)O)CC[C@@H]2C)cc1', 'z-score', -0.676);

Q: Would you kindly share the measured z-score for CCOC(=O)[C@H](CC(C)C)NC(=O)CCC1CC(OC(=O)NCc2cccc3ccccc23)CC2(CCCC(COC(=O)NCc3cccc(C(F)(F)F)c3)O2)O1 (some centres undefined) ?
A: 0.289

Q: Please do the same for CC(=O)OC[C@H]1OC(ON=CC[C@@H]2C=C[C@H](OC(C)=O)[C@@H](COC(C)=O)O2)[C@H](OC(C)=O)[C@@H](OC(C)=O)[C@@H]1OC(C)=O (some centres undefined) as well.
A: -0.64
